B1: MED27 (parent)
chain: YNENVYTEDGKLDIWSKSNYQVFQ

# Variants of: B1
# PROTOCOL_DETAILS: protein stability index of a GFP-peptide fusion (GPS, HEK-293T) (PSI 1-6); higher = more stable;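 further: lentivirally expressed fusions sorted by FACS into six bins by GFP to DsRed ratio, PSI derived from sequencing read proportions per bin multiplied by bin number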
# CONDITION_INFO: c terminus: a fixed tail appended
Recorded protein stability index by entry
ASSAY_READOUT: protein stability index

MUTANT_DESIGNATION	READING
K17V	2.17
L12Q	3.1
S16R	1.78
K11R	1.96
N19K	1.96
Y20L	2.35
N4G	2.37
N2P	2.09
N19L	1.58
F23V	2.38
Q24K	2.58
Y1V	3.67
E8F	1.69
